Listing of recorded pIC50 by entry.
- target or test system: Recombinant human cathepsin A (Homo sapiens (Human))
- Sequence (P10619 29-326): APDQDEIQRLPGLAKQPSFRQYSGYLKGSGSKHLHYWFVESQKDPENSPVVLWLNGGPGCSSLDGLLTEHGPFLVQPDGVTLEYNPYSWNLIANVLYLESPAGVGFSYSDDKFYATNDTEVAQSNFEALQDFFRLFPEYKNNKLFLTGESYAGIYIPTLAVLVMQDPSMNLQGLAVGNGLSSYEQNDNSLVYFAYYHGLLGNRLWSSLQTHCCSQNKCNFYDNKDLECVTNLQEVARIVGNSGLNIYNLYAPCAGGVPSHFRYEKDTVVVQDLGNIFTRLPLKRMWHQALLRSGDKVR
- Sequence (P10619 327-480): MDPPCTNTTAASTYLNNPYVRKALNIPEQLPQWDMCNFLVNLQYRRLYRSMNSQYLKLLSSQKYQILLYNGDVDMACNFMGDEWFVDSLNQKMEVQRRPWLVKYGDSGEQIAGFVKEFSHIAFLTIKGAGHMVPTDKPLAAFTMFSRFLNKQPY
- assay text: Cathepsin A inhibitory activity (Bodipy FL-labeled bradykinin substrate, microfluidic capillary electrophoresis)
- Format: biochemical
- experimental parameters: read-out: CATHA IC50
By convention, pIC50 is the negative base-10 log of a molar concentration.

Ask | State its pIC50: COc1ccc(-c2cc(F)ccc2C)cc1C(CC(=O)O)c1ncc(C)s1 (centres unmarked)
Reply | 5.92

Ask | Answer with the recorded pIC50 of Cc1cnc(C(CC(=O)O)c2cccc(-c3cccnc3)c2)s1 (centres unmarked) only.
Reply | 5.12

Ask | Consider the compound COc1ccc(-c2ccccc2C(N)=O)cc1C(CC(=O)O)c1ncc(C)s1 (centres unmarked) . State its measured pIC50.
Reply | 4.71

Ask | Respond only with pIC50 recorded for N#Cc1ccc(-c2cccc(C(CC(=O)O)c3nccs3)c2)cn1 (centres unmarked)
Reply | 4.65

Ask | Check the records and state pIC50 for COc1ccc(-c2ccc(F)cc2C)cc1C(CC(=O)O)c1ncc(C)s1 (centres unmarked)
Reply | 5.43

* * *

The following molecules are listed with their measured pIC50 values.
- target or test system: Recombinant human cathepsin A (Homo sapiens (Human))
- assay text: Cathepsin A inhibitory activity (Bodipy FL-labeled bradykinin substrate, microfluidic capillary electrophoresis)
- Type: biochemical
- experimental parameters: read-out: CATHA IC50
Just so you know, pIC50 here is -log10 of the concentration in molar units; reply with that number alone.

[[record]]
molecule = "COc1cccc(-c2ccc(OC)c(C(CC(=O)O)c3ncc(C)s3)c2)c1 (stereo not drawn)"
measured_attribute = "pIC50"
result = 5.25

[[record]]
molecule = "COc1cc(-c2cccc(C(CC(=O)O)c3nccs3)c2)ccc1O (stereo not drawn)"
measured_attribute = "pIC50"
result = 5.64

[[record]]
molecule = "Cc1cnc(C(CC(=O)O)c2cc(Cl)cc(-c3ccccc3OC(F)(F)F)c2)s1 (stereo not drawn)"
measured_attribute = "pIC50"
result = 6.66


Ask | Report pIC50 on Recombinant human cathepsin A (Homo sapiens (Human)) for this entry: COc1ccc(-c2ccc(F)cc2Cl)cc1C(CC(=O)O)c1ncc(C)s1 (stereo not drawn)
Reply | 5.20

Ask | Answer briefly: pIC50 recorded on Recombinant human cathepsin A (Homo sapiens (Human)) for COc1ccc(-c2cc(Cl)ccc2F)cc1C(CC(=O)O)c1ncc(C)s1 (stereo not drawn)
Reply | 5.91

Ask | Report value only: pIC50, Recombinant human cathepsin A (Homo sapiens (Human)), O=C(O)CC(c1cccc(-c2cccc(OCC(F)(F)F)c2)c1)c1nccs1 (stereo not drawn)
Reply | 5.61

Ask | With Recombinant human cathepsin A (Homo sapiens (Human)) as the test system, provide measured pIC50 for this molecule: Cc1cnc(C(CC(=O)O)c2cccc(-c3ccncc3)c2)s1 (stereo not drawn)
Reply | 4.86

Ask | Check Recombinant human cathepsin A (Homo sapiens (Human)) data and give pIC50 for CC(=O)c1ccccc1-c1cccc(C(CC(=O)O)c2ncc(C)s2)c1 (stereo not drawn) .
Reply | 5.64

Ask | State recorded pIC50 with Recombinant human cathepsin A (Homo sapiens (Human)), entry Cc1cnc(C(CC(=O)O)c2cc(Cl)cc(-c3cccnc3)c2)s1 (stereo not drawn) , no comment.
Reply | 5.97

Ask | Give reported pIC50 for COc1cc(F)c(-c2cc(Cl)cc(C(CC(=O)O)c3ncc(C)s3)c2)c(F)c1 (stereo not drawn) (Recombinant human cathepsin A (Homo sapiens (Human)))
Reply | 6.47

Ask | State measured pIC50 of the molecule Cc1c(Cl)cccc1-c1cccc(C(CC(=O)O)c2nccs2)c1 (stereo not drawn) with Recombinant human cathepsin A (Homo sapiens (Human)).
Reply | 5.78

Ask | Lab note: Recombinant human cathepsin A (Homo sapiens (Human)) assay, enter pIC50 for COc1cccc(-c2cccc(C(CC(=O)O)c3nccs3)c2)c1F (stereo not drawn) here
Reply | 6.23
